Below, each entry is listed alongside its reported pKi.
Target: MDMX (Homo sapiens)
Sequence (O15151 1-125): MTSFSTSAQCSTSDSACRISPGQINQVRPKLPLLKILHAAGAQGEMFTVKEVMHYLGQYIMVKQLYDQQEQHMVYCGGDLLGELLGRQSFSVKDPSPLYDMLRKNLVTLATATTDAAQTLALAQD
Experiment: Competitive fluorescence polarization assay for MDMX
Type: binding
Conditions: competitive FP assay, read-out: Ki (MDMX)
pKi: −log10 of the molar value. Where a SMILES comes first, the peptide text is derived from it. Bridges are numbered along the chain shown (N, C = ends). [ ]: non-standard residue; d: D form. R8 = C=CCCCCCC[C@@](C)(N)C(=O)O; Cba = N[C@@H](CC1CCC1)C(=O)O; S5 = C=CCCC[C@](C)(N)C(=O)O

molecule: CC(=O)N[C@@H](CC(C)C)C(=O)N[C@H](C(=O)N[C@@H](Cc1ccccc1)C(=O)N[C@]1(C)CCCCCCC=CCCC[C@@](C)(C(=O)N[C@@H](CO)C(=O)N[C@@H](C)C(=O)N[C@@H](Cc2ccccc2)C(N)=O)NC(=O)[C@H](CC2CCC2)NC(=O)[C@H](CCC(N)=O)NC(=O)[C@H](CO)NC(=O)[C@H](Cc2c[nH]c3ccccc23)NC(=O)[C@H](Cc2ccc(O)cc2)NC(=O)[C@H](C)NC1=O)[C@@H](C)O [compound 262] (Ac-LTF[R8]AYWSQ[Cba][S5]SAF-NH2; staple 4-11)
pKi: 7.00 to 8.00
//
molecule: CC(C)C[C@H](NC(=O)CCNC(=O)c1ccc2c(c1)C(=O)OC21c2ccc(N(C)C)cc2Oc2cc(N(C)C)ccc21)C(=O)N[C@H](C(=O)N[C@@H](Cc1ccccc1)C(=O)N[C@]1(C)CCCCCCC=CCCC[C@@](C)(C(=O)N[C@@H](CO)C(=O)N[C@@H](C)C(=O)N[C@@H](C)C(N)=O)NC(=O)[C@H](CC2CCC2)NC(=O)[C@H](CCC(N)=O)NC(=O)[C@H](C)NC(=O)[C@H](Cc2c[nH]c3ccccc23)NC(=O)[C@H](Cc2ccc(O)cc2)NC(=O)[C@H](CCC(=O)O)NC1=O)[C@@H](C)O [compound 686]
pKi: 7.00 to 8.00

All figures here come from patent US8927500B2.
